Values were extracted from patent US12391698B2.

# tested-target: hD2S (cloned human dopamine D2S receptor) (Homo sapiens, UniProt P14416)
# Construct: expressed in transfected cells; host or cells: CHO-K1
# Sequence (P14416 1-414 isoform P14416-2): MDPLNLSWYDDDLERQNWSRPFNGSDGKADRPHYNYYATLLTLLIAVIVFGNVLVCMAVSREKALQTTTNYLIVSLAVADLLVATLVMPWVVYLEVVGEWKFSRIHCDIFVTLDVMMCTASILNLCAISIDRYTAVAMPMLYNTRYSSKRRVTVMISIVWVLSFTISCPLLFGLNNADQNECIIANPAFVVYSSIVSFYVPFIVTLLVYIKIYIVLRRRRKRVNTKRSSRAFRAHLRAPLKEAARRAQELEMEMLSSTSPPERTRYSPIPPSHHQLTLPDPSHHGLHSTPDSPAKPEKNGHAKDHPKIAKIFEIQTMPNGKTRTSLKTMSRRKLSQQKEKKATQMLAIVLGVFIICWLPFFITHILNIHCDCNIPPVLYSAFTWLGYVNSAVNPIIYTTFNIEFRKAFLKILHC
# experimental-protocol: Determination of Ki at D2S receptor (radioligand binding, [3H]-Raclopride)
# recorded-conditions: CHO-K1 recombinant cells; [3H]-Raclopride 4 nM; read-out: Ki hD2S
Structures can show the parent of a compound that is named as a salt.
quantity-name: Ki (nM)
Use nM as the unit, but write only the number.

Sample answers from the record:
INSERT INTO results (molecule, value_reported) VALUES
  ('O=C1C[C@@H]2CCCN2C(=O)N1CCCCN1CCN(c2cccc3sccc23)CC1 [Example 4, oxalate]', 1.83),
  ('CC(=O)N1CCN2C(=O)N(CCCCN3CCN(c4nsc5ccccc45)CC3)C(=O)C[C@@H]2C1 [Example 37]', 8.2),
  ('O=C1C[C@@H]2CCCCN2C(=O)N1CCCCN1CCC(c2c[nH]c3ccc(F)cc23)CC1', 2.9);

Please examine the following record next.
Problem: Can you look up the measured Ki of O=C1C[C@@H]2CCCN2C(=O)N1CCCCN1CCC(c2noc3cc(F)ccc23)CC1 for me?
Result: 7.3

----------
# experimental-protocol: Rodent pharmacokinetic study
# Format: in vivo, Male Wistar rats
# recorded-conditions: rat, plasma; oral 3 mg/kg vs intravenous 1 mg/kg; male Wistar rats; mean ± S.D, n = 3; read-out: F (Bioavailability)
# Description: Male Wistar rats (260±50 g) were used as experimental animals. Animals were housed individually in polypropylene cage. Two days prior to study, male Wistar rats were anesthetized with isoflurane for surgical placement of jugular vein catheter. […] At pre-determined time points, blood samples were collected through jugular vein and replenished with an equivalent volume of normal saline. […] The test compounds were quantified in the calibration range around 1-1000 ng/mL in plasma. […]
Structures can show the parent of a compound that is named as a salt.
quantity-name: bioavailability (%)
Record the value in %, omitting the unit from your answer.

Example results:
INSERT INTO measurements (molecule, quantity_name, result_unit, value_reported) VALUES
  ('O=C1C[C@@H]2C[C@H](F)CN2C(=O)N1CCCCN1CCN(c2nsc3ccccc23)CC1 [Example 9, oxalate]', 'bioavailability', '%', 14),
  ('O=C1C[C@@H]2CCCN2C(=O)N1CCCCN1CCC(c2noc3cc(F)ccc23)CC1 [Example 5]', 'bioavailability', '%', 22);

Problem: Given the molecule O=C1C[C@@H]2CCCN2C(=O)N1CCCCN1CCN(c2nsc3ccccc23)CC1 [Example 2, oxalate] , what is its reported bioavailability?
Result: 15

Problem: Which value of bioavailability has been reported for O=C1C[C@H]2CCCN2C(=O)N1C[C@H]1CCCC[C@H]1CN1CCC(c2noc3cc(F)ccc23)CC1 [Example 29, oxalate] in the records?
Result: 4.6

Problem: I would be grateful if you could share the reported bioavailability for O=C1C[C@H]2CCCN2C(=O)N1C[C@H]1CCCC[C@H]1CN1CCN(c2nsc3ccccc23)CC1 [Example 27, oxalate] .
Result: 16

Problem: Return reported bioavailability; argument: O=C1C[C@@H]2CCCN2C(=O)N1CCCCN1CCN(c2cccc3sccc23)CC1 [Example 4, oxalate]
Result: 16

Problem: State the recorded bioavailability for this entry: O=C1C[C@@H]2C[C@H]3C[C@H]3N2C(=O)N1CCCCN1CCN(c2nsc3ccccc23)CC1 [Example 11, oxalate]
Result: 8
